Attribution: patent US11142504B2

System: MycCap cells
PROTOCOL SUMMARY: Cell viability of MycCap cells
Format: cell-based
CONDITION SUMMARY: Mus musculus, Myc-CaP
I'd appreciate it if you could supply IC50 values for the items below.
Give bare numbers, in µM.

Field: example entries. Status: answers known.
Oc1cc(OCc2ccc(Cl)cc2)ccc1-c1n[nH]c(C(F)(F)F)c1Oc1ccccc1Cl :: 3.5
COc1ccc(-c2cc(C(F)(F)F)[nH]n2)c(O)c1-c1cc(C(F)(F)F)cc(C(F)(F)F)c1 :: 4.9
Cn1nc(-c2ccc(OCc3ccc(Cl)cc3)c(-c3cncc(C#N)c3)c2O)cc1C(F)(F)F :: 4.6

// IC50 value for CCCCOc1ccc(-c2cc(C(F)(F)F)n(C)n2)c(O)c1-c1ccc(Cl)c(C(F)(F)F)c1 : 4.5

----------
TESTED SYSTEM: MYC/Max binding to DNA (Homo sapiens)
Sequence (P01106 whole entry, species assumed): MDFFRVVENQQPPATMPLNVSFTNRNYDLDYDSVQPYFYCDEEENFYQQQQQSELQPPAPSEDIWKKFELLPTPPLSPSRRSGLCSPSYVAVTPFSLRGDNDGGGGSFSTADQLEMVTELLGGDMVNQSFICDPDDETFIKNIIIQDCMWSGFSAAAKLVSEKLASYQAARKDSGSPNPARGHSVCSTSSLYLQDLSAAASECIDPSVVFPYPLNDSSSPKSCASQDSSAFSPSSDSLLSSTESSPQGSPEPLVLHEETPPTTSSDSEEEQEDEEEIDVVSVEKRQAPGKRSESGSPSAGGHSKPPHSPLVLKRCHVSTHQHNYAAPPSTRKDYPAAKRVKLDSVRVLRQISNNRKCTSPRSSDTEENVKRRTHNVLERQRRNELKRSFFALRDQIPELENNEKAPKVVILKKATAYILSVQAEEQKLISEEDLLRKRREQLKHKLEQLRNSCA
PROTOCOL SUMMARY: Electrophoretic mobility shift assay (EMSA)
Task for the reader: assign each of the following compounds its reported pIC50.
Answers are plain numbers, as −log10 of the molar value.

Here's what some known entries look like.
Cn1nc(C(F)(F)F)cc1-c1ccc(OCc2ccc(Cl)cc2)c(-c2cc(C(F)(F)F)cc(C(F)(F)F)c2)c1O [NUCC-0196361] :: 4.20
Oc1cc(OCc2ccc(Cl)cc2)ccc1-c1n[nH]c(C(F)(F)F)c1-c1ccccc1 [NUCC-0198295] :: 4.27
Oc1c(-c2cc(C(F)(F)F)[nH]n2)ccc(OCc2ccc(Cl)cc2)c1-c1cc(C(F)(F)F)cc(C(F)(F)F)c1 [NUCC-0196362] :: 3.99
COc1cccc(-c2c(-c3ccc(OCc4ccc(Cl)cc4)cc3O)n[nH]c2C(F)(F)F)c1 [NUCC-0198309] :: 4.21
Oc1c(-c2cc(C(F)(F)F)[nH]n2)ccc(OCc2ccc(Cl)cc2)c1-c1ccccc1Cl [NUCC-0196363] :: 4.21

Now, please, on to the next compound.
Form field, pIC50 with MYC/Max binding to DNA (Homo sapiens), item Oc1cc(OCc2ccc(Cl)cc2)ccc1-c1n[nH]c(C(F)(F)F)c1Oc1ccccc1Cl [NUCC-0196342] : 4.19
